Reported Plant response rating, Soybean values for the following compounds.
- System: soybean
- testProtocol: Test C pre-/postemergence test
- Assay type: in vivo, Glycine max
- conditionContext: Preemergence, 31 g ai/ha; scale 0 to 100 (0 no effect, 100 complete control)
valueType: Plant response rating, Soybean

> print(dat)
                                   compound                       valuetype  measvalue
1  CC(C)c1cc[n+]([O-])c([S+]([O-])Cc2c(C(F)(F)F)nn(C)c2OC(F)F)c1 (stereo not shown) [Compound 109]  Plant response rating, Soybean         45
2  CCn1nc(C(F)(F)F)c(CS(=O)(=O)c2cc(C)cc[n+]2[O-])c1OCC(F)(F)F [Compound 64]  Plant response rating, Soybean          0
3  C#CCOc1c(C[S+]([O-])c2cccc[n+]2[O-])c(C(F)(F)F)nn1C (stereo not shown) [Compound 76]  Plant response rating, Soybean          0
4  Cn1nc(C(F)(F)F)c(C[S+]([O-])c2cc(Cl)cc[n+]2[O-])c1Cl (racemic) [Compound 39]  Plant response rating, Soybean          0

====

- Test system: yellow nutsedge
- testProtocol: Test C pre-/postemergence test
- Type: in vivo, Cyperus esculentus
- conditionContext: 62 g ai/ha, Preemergence; scale 0 to 100
valueType: Nutsedge, Yellow plant response rating

> print(dat)
                                   compound  measvalue
1  Cn1nc(OC(F)F)c(CS(=O)(=O)c2cccc[n+]2[O-])c1C(F)(F)F [Compound 80]         75
2  Cn1nc(C(F)(F)F)c(C[S+]([O-])c2ccc(F)c[n+]2[O-])c1OC(F)F (stereo not shown) [Compound 58]         40
3  Cn1nc(C(F)(F)F)c(CS(=O)(=O)c2cc(C(C)(C)C)cc[n+]2[O-])c1OC(F)F [Compound 25]         80
4  Cn1nc(C(F)(F)C(F)(F)F)c(C[S+]([O-])c2cccc[n+]2[O-])c1OCC(F)(F)F (stereo not shown) [Compound 79]         75

====

Listing of entries alongside the reported Johnsongrass plant response rating.
- System: johnsongrass
- testProtocol: Test C pre-/postemergence test
- Type: in vivo, Sorghum halepense
- conditionContext: 62 g ai/ha, preemergence; scale 0 (no effect) to 100 (complete control)
- Description: Seeds of plant species selected from blackgrass (Alopecurus myosuroides), downy brome (Bromus tectorum), green foxtail (Setaria viridis), Italian ryegrass (Lolium multiflorum), wheat (Triticum aestivum), wild oat (Avena fatua), catchweed bedstraw (Galium aparine), Russian thistle (Salsola kali), […] […]
valueType: Johnsongrass plant response rating

> print(dat)
                                   molecule  testedtarget                           valuetype  measvalue
1  Cc1cc[n+]([O-])c(S(=O)(=O)C(C)c2c(C(F)(F)F)nn(C)c2OC(F)F)c1 (stereo not shown) [Compound 11]  johnsongrass  Johnsongrass plant response rating        100
2  CC(c1c(C(F)(F)F)nn(C)c1OC(F)F)S(=O)(=O)c1cccc[n+]1[O-] (stereo not shown) [Compound 5]  johnsongrass  Johnsongrass plant response rating        100
3  Cn1nc(C(F)(F)F)c(C[S+]([O-])c2cccc[n+]2[O-])c1Cl (stereo not shown) [Compound 8]  johnsongrass  Johnsongrass plant response rating         85
4  Cn1nc(C(F)(F)F)c(C[S+]([O-])c2ccc(Cl)c[n+]2[O-])c1OC(F)F (stereo not shown) [Compound 6]  johnsongrass  Johnsongrass plant response rating         98

====

- Tested on: bermudagrass
- testProtocol: Test C pre-/postemergence test
- Type: in vivo, Cynodon dactylon
- conditionContext: Preemergence, 31 g ai/ha; scale 0 to 100 (0 no effect, 100 complete control)
valueType: Plant response rating, Bermudagrass

> print(dat)
                                    compound  measvalue
 1  Cn1nc(C(F)(F)F)c(C(Cl)S(=O)(=O)c2cccc[n+]2[O-])c1OC(F)F (stereo not drawn)         90
 2  CC(Oc1c(CS(=O)(=O)c2cccc[n+]2[O-])c(C(F)(F)F)nn1C)C(F)(F)F (stereo not drawn)        100
 3  Cn1nc(C(F)(F)F)c(C[S+]([O-])c2ccc(F)c[n+]2[O-])c1Cl (stereo not drawn)         98
 4  CC(C)c1cc[n+]([O-])c([S+]([O-])Cc2c(C(F)(F)F)nn(C)c2OC(F)F)c1 (stereo not drawn)         95
 5  Cn1nc(C(F)(F)F)c(C[S+]([O-])c2ccc(F)c[n+]2[O-])c1OC(F)F (stereo not drawn)        100
 6  Cn1nc(C(F)(F)F)c(CS(=O)(=O)c2cccc[n+]2[O-])c1OCC(F)(F)F        100
 7  Cn1nc(C(F)(F)F)c(C[S+]([O-])c2cccc[n+]2[O-])c1OCC(F)(F)F (racemic)        100
 8  Cn1nc(C(F)(F)F)c(C[S+]([O-])c2cccc[n+]2[O-])c1OCC(F)F (stereo not drawn)        100
 9  Cn1nc(C(F)(F)F)c(C[S+]([O-])c2cc(C(F)(F)F)cc[n+]2[O-])c1Cl (racemic)         75
10  Cc1cc[n+]([O-])c(S(=O)(=O)Cc2c(C(F)(F)F)nn(C)c2OC(C)C(F)(F)F)c1 (stereo not drawn)         85
11  Cn1nc(C(F)(F)F)c(C[S+]([O-])c2cc(C(C)(C)C)cc[n+]2[O-])c1OC(F)F (racemic)         75
12  CCn1nc(C(F)(F)F)c(C[S+]([O-])c2cccc[n+]2[O-])c1OCC(F)(F)F (racemic)        100
13  Cc1cc[n+]([O-])c(S(=O)(=O)Cc2c(C(F)(F)F)nn(C)c2OCC(F)(F)F)c1        100
14  Cc1cc[n+]([O-])c(S(=O)(=O)Cc2c(C(F)(F)F)nn(C)c2Cl)c1         85
15  Cn1nc(C(F)(F)F)c(CS(=O)(=O)c2cccc[n+]2[O-])c1OCC(F)F         80
16  CCn1nc(C(F)(F)F)c(C[S+]([O-])c2cc(C)cc[n+]2[O-])c1OCC(F)(F)F (racemic)        100
17  CCn1nc(C(F)(F)F)c(CS(=O)(=O)c2cc(C)cc[n+]2[O-])c1OCC(F)(F)F        100
18  CCc1cc[n+]([O-])c(S(=O)(=O)Cc2c(C(F)(F)F)nn(C)c2OCC(F)(F)F)c1        100

====

- Tested on: Goosegrass
- testProtocol: Test C pre-/postemergence test
- Format: in vivo, Eleusin indica
- conditionContext: 62 g ai/ha, Preemergence; scale 0 to 100
Reported values of Goosegrass plant response rating for individual entries
valueType: Goosegrass plant response rating

> print(dat)
                                    compound  measvalue
 1  Cc1cc[n+]([O-])c(S(=O)(=O)C(Cl)c2c(C(F)(F)F)nn(C)c2Cl)c1 (racemic)        100
 2  CC(Oc1c(C[S+]([O-])c2cccc[n+]2[O-])c(C(F)(F)F)nn1C)C(F)(F)F (stereo not drawn)        100
 3  CC(Oc1c(C[S+]([O-])c2ccc(Cl)c[n+]2[O-])c(C(F)(F)F)nn1C)C(F)(F)F (stereo not drawn)        100
 4  Cn1nc(C(F)(F)F)c(C[S+]([O-])c2cc(C(F)(F)F)cc[n+]2[O-])c1Cl (racemic)         98
 5  Cn1nc(C(F)(F)F)c(CS(=O)(=O)c2cccc[n+]2[O-])c1OCC(F)F         98
 6  Cn1nc(C(F)(F)F)c(C[S+]([O-])c2cc(Cl)cc[n+]2[O-])c1Cl (racemic)        100
 7  Cc1cc[n+]([O-])c([S+]([O-])Cc2c(C(F)(F)F)nn(C)c2Cl)c1 (racemic)        100
 8  CCn1nc(C(F)(F)F)c(CS(=O)(=O)c2cc(C)cc[n+]2[O-])c1OCC(F)(F)F        100
 9  Cn1nc(OC(F)F)c(CS(=O)(=O)c2cccc[n+]2[O-])c1C(F)(F)F         98
10  CCc1cc[n+]([O-])c(S(=O)(=O)Cc2c(C(F)(F)F)nn(C)c2OCC(F)(F)F)c1        100
11  CCc1cc[n+]([O-])c([S+]([O-])Cc2c(C(F)(F)F)nn(C)c2OCC(F)(F)F)c1 (stereo not drawn)        100
12  CCc1cc[n+]([O-])c(S(=O)(=O)Cc2c(C(F)(F)F)nn(C)c2OC(F)F)c1         98
13  Cc1cc[n+]([O-])c(S(=O)(=O)Cc2c(C(F)(F)C(F)(F)F)nn(C)c2OCC(F)(F)F)c1         95
14  Cc1cc[n+]([O-])c(S(=O)(=O)Cc2c(C(F)(F)F)nn(C)c2OCC(F)(F)F)c1        100
15  Cn1nc(C(F)(F)F)c(C[S+]([O-])c2cc(C(C)(C)C)cc[n+]2[O-])c1OC(F)F (racemic)        100

From: patent US20100298141A1
